# Tested on: Spodoptera littoralis
# assay: Study on Spodoptera littoralis (haricot leaf dip test)
# Type: in vivo
# assay.context: starting from a dose of 300 ppm, after seven days, 25 C
measurement.label: activity (mortality of the larvae and foliar surface consumed)

Recorded results for 4 compounds are shown here.
Can you look up the measured activity (mortality of the larvae and foliar surface consumed) of CC(=CCc1ccc(C(=O)Nc2ccccc2C)cc1)c1ccc(Cl)c(Cl)c1 [Example 5] for me?
good activity

Same read-out for Cc1ccccc1NC(=O)c1ccc(CC(F)=Cc2ccc(Cl)c(Cl)c2)cc1 [Example 2] ?
good activity

Same read-out for Cc1ccccc1NC(=O)c1ccc(CC=C(Cl)c2ccc(Cl)c(Cl)c2)cc1 [Example 6] ?
good activity

Same read-out for Cc1ccccc1NC(=O)c1ccc(CC(F)Cc2ccc(Cl)c(Cl)c2)cc1 (centres unmarked) [Example 1] ?
good activity

Continue with the compound presented below.
Can you look up the measured activity (mortality of the larvae and foliar surface consumed) of Cc1ccccc1NC(=O)c1ccc(CC=Cc2ccc(Cl)c(Cl)c2)cc1 [Example 7] for me?
good activity

The reported measurements were obtained from patent US20020068838A1.
